pIC50: −log10 of the molar value.
Reported values: pIC50 for ACVR2B (Homo sapiens), one per item.

| Compound | Result |
| --- | --- |
| CN(C)CC(O)COc1ccc(Nc2ncc([N+](=O)[O-])c(Nc3ccccc3O)n2)cc1.O=C(O)C(F)(F)F (centres unmarked) [TCMDC-141399] | < 4.70 |

Turning to the following compound.
The measured pIC50 associated with CN1CCN(c2ccc(Nc3ncc(C#N)c(Nc4ccccc4C(N)=O)n3)cc2)CC1.Cl [TCMDC-134116] reads < 4.70

---

Give measured pIC50 for each item. Keep answers brief.
# Target: AXL (Homo sapiens)
# Sequence (P30530 whole entry): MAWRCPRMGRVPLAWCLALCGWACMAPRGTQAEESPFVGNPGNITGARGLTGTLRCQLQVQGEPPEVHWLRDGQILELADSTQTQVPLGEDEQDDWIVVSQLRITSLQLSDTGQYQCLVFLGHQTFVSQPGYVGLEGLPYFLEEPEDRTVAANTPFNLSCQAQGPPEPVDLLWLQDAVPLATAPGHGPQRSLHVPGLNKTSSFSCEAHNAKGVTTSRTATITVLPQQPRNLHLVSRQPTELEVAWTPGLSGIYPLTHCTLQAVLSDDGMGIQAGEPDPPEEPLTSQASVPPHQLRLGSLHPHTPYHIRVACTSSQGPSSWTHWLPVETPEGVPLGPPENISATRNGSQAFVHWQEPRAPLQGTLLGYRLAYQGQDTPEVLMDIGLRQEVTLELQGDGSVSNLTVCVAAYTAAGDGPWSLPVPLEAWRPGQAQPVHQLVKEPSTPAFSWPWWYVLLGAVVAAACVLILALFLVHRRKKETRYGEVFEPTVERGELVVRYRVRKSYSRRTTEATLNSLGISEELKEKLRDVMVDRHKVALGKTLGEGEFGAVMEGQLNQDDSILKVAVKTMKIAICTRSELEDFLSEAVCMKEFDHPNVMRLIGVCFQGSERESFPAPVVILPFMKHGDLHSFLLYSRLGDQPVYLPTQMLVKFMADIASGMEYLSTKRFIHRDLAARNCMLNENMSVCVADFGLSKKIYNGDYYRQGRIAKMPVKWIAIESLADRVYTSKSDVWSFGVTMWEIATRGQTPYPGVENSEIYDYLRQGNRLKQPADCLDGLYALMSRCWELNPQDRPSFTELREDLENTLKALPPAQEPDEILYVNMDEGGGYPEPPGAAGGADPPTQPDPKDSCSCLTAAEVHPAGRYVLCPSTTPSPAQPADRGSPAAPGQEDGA
pIC50: −log10 of the molar value.

| Compound | Result |
| --- | --- |
| CN(C)CC(O)COc1ccc(Nc2ncc([N+](=O)[O-])c(Nc3ccccc3O)n2)cc1.O=C(O)C(F)(F)F (centres unmarked) [TCMDC-141399] | < 4.70 |

Turning to the following compound.
The measured pIC50 associated with Cl.NCC1(c2nc(-c3ccc(Cl)c(O)c3)c(-c3ccncc3)[nH]2)CCCCC1 [TCMDC-141154] reads < 4.70
